MIC reference
test system: Escherichia coli BE1121 strain; assay: MIC for Escherichia coli BE1121 strain; assay type: cell-based; conditions: Escherichia coli, BE1121STRAIN; BE1121 strain; regular bouillon medium, 37° C. overnight, turbidity; read-out: MIC Escherichia coli BE1121
# output: bare number, implied unit mg/L

Given the molecule CCCCC1CCC(C(O)=C2C(=O)N(C(=O)Nc3ccccc3)c3ccccc32)CC1 (centres unmarked) [A016] and test system Escherichia coli BE1121 strain, the measured MIC is 256

// MIC (Escherichia coli BE1121 strain) for CCCCCCCCCCOCC(=O)c1c(O)c2cc(C)ccc2oc1=O [B029] = 256

The measured MIC that CCCCCCCCCCOCC(O)=C1C(=O)N(C(C)=O)c2ccccc21 [A013, N-acetyl-3-decyloxyacetyl-2-oxyindole] showed for Escherichia coli BE1121 strain is 256

Summary: CCCCCCCCOCC(=O)c1c(O)c2ccccc2oc1=O [B030, 3-octyloxyacetyl-4-hydroxycoumarin] , Escherichia coli BE1121 strain, MIC = 2

Observed MIC, Escherichia coli BE1121 strain, CCCCCCCCCCOC(C)C(O)=C1C(=O)N(C(=O)Nc2ccccc2)c2ccccc21 (centres unmarked) [A021] : 256

Response field MIC (Escherichia coli BE1121 strain) for item CCCCCCCCCCOCC(O)=C1C(=O)N(C(=O)Nc2ccccc2)c2ccccc21 [A019] : 128

Record CCCCCCCCCC(O)=C1C(=O)N(C(=O)Nc2ccc(Br)cc2)c2ccccc21 [A039] has Escherichia coli BE1121 strain MIC equal to 256

Simply: CCCCCCCCCCSCC(O)=C1C(=O)N(C(=O)Nc2ccccc2)c2ccc(F)cc21 [A037] , Escherichia coli BE1121 strain, MIC = 256

Value (MIC, Escherichia coli BE1121 strain) for record CCCCCCCCCC(=O)N1C(=O)/C(=C(\O)COC)c2ccccc21 [A049, N-decanoyl-3-methoxyacetyl-2-oxyindole] = 128

====

Each record here notes measured MIC.
tested on: Staphylococcus aureus Smith strain; test: MIC for Staphylococcus aureus Smith strain; assay type: cell-based; details: Smith strain, regular bouillon medium, 37° C. overnight, turbidity, read-out: MIC Straphyrococcus aureus Smith
Unit µg/mL implied. Number only.

In the examples that follow, each entry is paired with its recorded MIC.
Record CCCCC1CCC(C(O)=C2C(=O)N(C(=O)OC(C)(C)C)c3ccc(F)cc32)CC1 (stereo not shown) [A027] ; system Staphylococcus aureus Smith strain; MIC = 16

Entry CC(C)[C@H]1CC[C@H](C)CC1OCC(=O)c1c(O)c2ccccc2oc1=O (stereo in doubt) [B006, 4-hydroxy-3-menthyloxyacetylcoumarin] , Staphylococcus aureus Smith strain data, MIC value: 1

Entry CCCCCCCCCC(=O)N1C(=O)/C(=C(/C)O)c2cc(F)ccc21 [A051, N-decanoyl-3-acetyl-5-fluoro-2-oxyindole] under Staphylococcus aureus Smith strain had MIC of 0.5

More entries:
Item: CCCCCCCCCC(O)=C1C(=O)N(C(C)=O)c2ccc(Br)cc21 [A026, N-acetyl-5-bromo-3-decanoyl-2-oxyindole] | System: Staphylococcus aureus Smith strain | MIC: 0.25

Item: CCCCC1CCC(C(O)=C2C(=O)N(C(=O)OC(C)(C)C)c3ccccc32)CC1 (stereo not shown) [A008] | System: Staphylococcus aureus Smith strain | MIC: 128

Response field MIC (Staphylococcus aureus Smith strain) for item CCCCCCCCCCOCC(O)=C1C(=O)N(C(C)=O)c2ccc(F)cc21 [A023] : 1

Tested system Staphylococcus aureus Smith strain; MIC recorded for CCCCC1CCC(C(O)=C2C(=O)N(C(=O)Nc3ccccc3)c3ccccc32)CC1 (stereo not shown) [A016] was 4

Per the reported Staphylococcus aureus Smith strain data, CCCCCCCCCC(O)=C1C(=O)N(C(=O)OC(C)(C)C)c2cc(Cl)ccc21 [A003, N-Boc-3-decanoyl-6-chloro-2-oxyindole] has MIC of 256

Field MIC (Staphylococcus aureus Smith strain), entry CCCCCCCCCCOCC(O)=C1C(=O)N(C(=O)Nc2ccc(F)cc2)c2ccccc21 [A041] : 4

The observed MIC for CCCCCCCCCC(O)=C1C(=O)N(C(=O)Nc2ccccc2C(F)(F)F)c2ccccc21 [A054] when tested with Staphylococcus aureus Smith strain stands at 0.5

Param item: CCCCC1CCC(C(O)=C2C(=O)N(C(=O)Nc3ccccc3)c3ccc(Br)cc32)CC1 (stereo not shown) [A034] ; param system: Staphylococcus aureus Smith strain; output MIC: 1

MIC value, target or system Staphylococcus aureus Smith strain, for CCCCCCCCC(O)=C1C(=O)N(C(=O)Nc2ccccc2)c2ccc(F)cc21 [A059] : 0.5

Record for CCCCCCCCCCOCC(O)=C1C(=O)N(C(=O)Nc2ccccc2)c2ccccc21 [A019] under target or system Staphylococcus aureus Smith strain: MIC reported as 4

The recorded MIC with Staphylococcus aureus Smith strain for CCCCCCCCCCSCC(O)=C1C(=O)N(C(=O)Nc2ccccc2)c2ccc(F)cc21 [A037] was 0.25

Record CCCCC1CCC(C(O)=C2C(=O)N(C(=O)OC(C)(C)C)c3cc(Cl)ccc32)CC1 (stereo not shown) [A009] has Staphylococcus aureus Smith strain MIC equal to 32

The recorded MIC with Staphylococcus aureus Smith strain for CCCCCCCCCC(=O)N1C(=O)/C(=C(\O)COC)c2ccccc21 [A049, N-decanoyl-3-methoxyacetyl-2-oxyindole] was 1

====

tested on: Staphylococcus aureus MRSA No. 17 (methicillin-resistant Staphylococcus aureus: MRSA); experiment: MIC for Staphylococcus aureus MRSA No. 17; assay type: cell-based; conditions: MRSA No. 17, regular bouillon medium, 37° C. overnight, turbidity, read-out: MIC Straphyrococcus aureus MRSA No. 17 (MRSA)
Parameter log10(MIC): see the listing below.
Base-10 log of MIC, unit µg/mL.

For record CCCCCCCCCCOCC(O)=C1C(=O)N(C(C)=O)c2ccc(Br)cc21 the listed log10(MIC) is 2.11

Value of log10(MIC) reported for the compound CCCCCCCCCC(=O)c1c(O)c2ccc(OC)cc2oc1=O [B001, 3-decanoyl-4-hydroxy-7-methoxycoumarin] is 2.41

====

test system: Escherichia coli BE1121 strain; test: MIC for Escherichia coli BE1121 strain; type: cell-based; details: Escherichia coli, BE1121STRAIN; BE1121 strain; regular bouillon medium, 37° C. overnight, turbidity; read-out: MIC Escherichia coli BE1121
recordedEndpoint: MIC (µg/mL)
Lab book: enter the figure in µg/mL, no units written.

These solved cases illustrate the format of a correct answer.
The measured MIC associated with CCCCCCCCCC(=O)N1C(=O)C(=C(O)c2ccc(Cl)cc2)c2ccccc21 reads 128

Entry CCCCCCCCCC(=O)c1c(O)c2cc(C)ccc2oc1=O [B012, 3-decanoyl-6-methyl-4-hydroxycoumarin] ; MIC = 256

For this molecule ( CCCCCCCCCC(O)=C1C(=O)Nc2ccccc21 ), measured MIC is 256

Briefly, MIC measured for CCCCCCCCCC(O)=C1C(=O)N(C(=O)Nc2ccc(OC(F)(F)F)cc2)c2ccccc21 : 128

Switching to the query record.
GET /value?item= CCCCCCCCCCSCC(=O)c1c(O)c2ccccc2oc1=O &field=MIC returns 2

====

system: Staphylococcus aureus 209P strain; test: MIC for Staphylococcus aureus 209P strain; assay type: cell-based; conditions: Staphylococcus aureus; 209P strain; regular bouillon medium, 37° C. overnight, turbidity; read-out: MIC Straphyrococcus aureus 209P
recordedEndpoint: MIC (µg/mL)
Respond numerically; units are µg/mL and should not be typed.

For this compound ( CCCCC1CCC(C(O)=C2C(=O)N(C(C)=O)c3ccccc32)CC1 (stereo not shown) [A010] ), measured MIC is 2

The recorded MIC for entry CCCCCCCCCCOCC(O)=C1C(=O)N(C(=O)Nc2ccccc2)c2ccc(F)cc21 [A036] equals 128

Query CCCCCCCCCCOCC(=O)c1c(O)c2cc(C)ccc2oc1=O [B029] yields MIC of 256

====

system: Staphylococcus aureus MRSA No. 17 (methicillin-resistant Staphylococcus aureus: MRSA); assay: MIC for Staphylococcus aureus MRSA No. 17; assay type: cell-based; conditions: MRSA No. 17, regular bouillon medium, 37° C. overnight, turbidity, read-out: MIC Straphyrococcus aureus MRSA No. 17 (MRSA)
recordedEndpoint: MIC (µg/mL)
Give just the number in µg/mL; leave the unit off.

Examples from the recorded data:
Per the record, CCCCC1CCC(C(O)=C2C(=O)N(C(=O)c3ccccc3)c3ccccc32)CC1 (centres unmarked) [A014] has MIC of 4

response.value for CCCCCCCCCC(O)=C1C(=O)N(C(=O)Nc2ccccc2C(F)(F)F)c2ccccc21 [A054] (field: MIC) = 2

Measured MIC, CCCCCCCCCC(=O)N1C(=O)/C(=C(\O)COC)c2cc(F)ccc21 [A050] : 256

// CCCCCCCCCC(=O)c1c(O)c2cc(C)ccc2oc1=O [B012, 3-decanoyl-6-methyl-4-hydroxycoumarin] : MIC value = 0.5

MIC reading for CCCCCCCCCCOCC(O)=C1C(=O)N(C(=O)OC(C)(C)C)c2cc(Cl)ccc21 [A012] : 256

Further cases:
Documented MIC of CCCCCCCCCC(O)=C1C(=O)Nc2ccccc21 [A001, 3-decanoyl-2-oxyindole] : 32

The molecule listed as CCCCCCCCCC(O)=C1C(=O)N(C(C)=O)c2ccc(Br)cc21 [A026, N-acetyl-5-bromo-3-decanoyl-2-oxyindole] has a reported MIC of 4

The molecule listed as CCCCCCCCCCOCC(O)=C1C(=O)N(C(C)=O)c2cc(Cl)ccc21 [A017] has a reported MIC of 16
